# targetDesc: CK1d (Homo sapiens, UniProt P48730)
# Construct: purchased ReactionBiology
# Sequence (P48730 whole entry): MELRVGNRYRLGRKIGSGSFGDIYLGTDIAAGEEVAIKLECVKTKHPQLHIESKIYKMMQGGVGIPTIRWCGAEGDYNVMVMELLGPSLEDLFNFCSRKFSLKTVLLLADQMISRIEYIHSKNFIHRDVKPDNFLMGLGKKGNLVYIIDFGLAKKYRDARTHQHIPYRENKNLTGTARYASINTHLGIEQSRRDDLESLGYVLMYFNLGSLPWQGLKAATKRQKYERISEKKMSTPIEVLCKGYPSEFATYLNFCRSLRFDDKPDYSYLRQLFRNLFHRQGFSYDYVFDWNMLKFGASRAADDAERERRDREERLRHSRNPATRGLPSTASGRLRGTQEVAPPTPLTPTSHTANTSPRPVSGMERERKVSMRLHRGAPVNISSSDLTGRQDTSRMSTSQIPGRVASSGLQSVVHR
# protocol: Kinase activity test (ReactionBiology), % enzyme activity relative to DMSO
# Type: biochemical
# conditionInfo: CK1d; 1 uM; replicate Data 1
# maps each entry to its % Enzyme Activity (relative to DMSO controls), Data 1
Numbers only; they are read as %.

Solved entries (count: 5):
O=C1Nc2ccc(Cl)cc2[C@@](C#CC2CC2)(C(F)(F)F)O1; 101.66
O=C(O)c1cc(-c2ccc(F)cc2F)ccc1O; 106.89
CCCCNc1ccc(C(=O)OCCN(C)C)cc1; 103.65
C[C@H]1O[C@@H](O[C@H]2[C@@H](O)C[C@H](O[C@H]3[C@@H](O)C[C@H](O[C@H]4CC[C@@]5(C)[C@H](CC[C@@H]6[C@@H]5C[C@@H](O)[C@]5(C)[C@@H](C7=CC(=O)OC7)CC[C@]65O)C4)O[C@@H]3C)O[C@@H]2C)C[C@H](O)[C@@H]1O; 105.62
COc1ccc2c(c1)c(CC(=O)O)c(C)n2C(=O)c1ccc(Cl)cc1; 102.08

Data point: CN[C@H]1CC[C@@H](c2ccc(Cl)c(Cl)c2)c2ccccc21 ; % Enzyme Activity (relative to DMSO controls), Data 1 = 105.95

Data point: CO[C@@]12[C@H](COC(N)=O)C3=C(C(=O)C(C)=C(N)C3=O)N1C[C@@H]1N[C@@H]12 ; % Enzyme Activity (relative to DMSO controls), Data 1 = 100.68

###

# targetDesc: VEGFR2 (Homo sapiens, UniProt P35968)
# Sequence (P35968 20-1356): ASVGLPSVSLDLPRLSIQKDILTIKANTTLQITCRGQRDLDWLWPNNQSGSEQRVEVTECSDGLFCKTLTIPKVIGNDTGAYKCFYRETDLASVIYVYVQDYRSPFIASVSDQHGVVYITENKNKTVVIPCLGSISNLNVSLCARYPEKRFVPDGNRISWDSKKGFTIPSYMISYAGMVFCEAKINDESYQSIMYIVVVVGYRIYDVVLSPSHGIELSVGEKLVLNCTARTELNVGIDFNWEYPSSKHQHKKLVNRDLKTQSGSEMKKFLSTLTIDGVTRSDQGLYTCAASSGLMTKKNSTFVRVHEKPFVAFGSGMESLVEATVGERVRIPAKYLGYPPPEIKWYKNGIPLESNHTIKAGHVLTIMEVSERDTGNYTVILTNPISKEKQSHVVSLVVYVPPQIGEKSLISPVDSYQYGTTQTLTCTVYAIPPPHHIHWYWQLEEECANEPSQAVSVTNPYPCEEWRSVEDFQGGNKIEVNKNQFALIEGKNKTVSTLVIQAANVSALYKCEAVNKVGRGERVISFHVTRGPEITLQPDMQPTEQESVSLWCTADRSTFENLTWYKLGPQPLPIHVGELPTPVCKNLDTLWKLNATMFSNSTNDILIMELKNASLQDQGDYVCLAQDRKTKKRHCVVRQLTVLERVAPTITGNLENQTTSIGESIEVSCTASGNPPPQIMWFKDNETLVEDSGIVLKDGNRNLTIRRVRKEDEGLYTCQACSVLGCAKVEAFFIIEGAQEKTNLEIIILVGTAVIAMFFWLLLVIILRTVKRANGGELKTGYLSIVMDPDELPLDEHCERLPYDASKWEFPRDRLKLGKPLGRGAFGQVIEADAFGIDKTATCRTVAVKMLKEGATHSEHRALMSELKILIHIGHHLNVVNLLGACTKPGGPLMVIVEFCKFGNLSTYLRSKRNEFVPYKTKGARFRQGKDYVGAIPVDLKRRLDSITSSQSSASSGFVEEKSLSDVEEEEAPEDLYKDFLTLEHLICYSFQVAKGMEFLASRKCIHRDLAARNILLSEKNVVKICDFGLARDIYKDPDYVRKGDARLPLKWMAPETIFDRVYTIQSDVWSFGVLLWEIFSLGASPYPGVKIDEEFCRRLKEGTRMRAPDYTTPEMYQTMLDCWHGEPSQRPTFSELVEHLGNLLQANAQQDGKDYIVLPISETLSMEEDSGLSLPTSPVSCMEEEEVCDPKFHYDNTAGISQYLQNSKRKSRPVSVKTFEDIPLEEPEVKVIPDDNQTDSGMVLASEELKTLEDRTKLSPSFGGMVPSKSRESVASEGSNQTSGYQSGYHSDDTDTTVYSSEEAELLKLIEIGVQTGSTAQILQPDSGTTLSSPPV
# protocol: Kinase activity test (ReactionBiology), % enzyme activity relative to DMSO
# Format: biochemical
# Design: purchased ReactionBiology
# conditionInfo: VEGFR2; 10 uM; replicate Data 1; read-out: % Enzyme Activity (relative to DMSO controls), Data 1
measuredAttribute: remaining activity at 10 µM (%)
Numbers only; they are read as %.

Nc1ncnc2c1ncn2[C@@H]1O[C@H](CO)[C@@H](O)[C@H]1O [Adenosine, reference compound]; 98.4
Cc1cc(C#N)cc(C)c1Oc1nc(Nc2ccc(C#N)cc2)nc(N)c1Br [Etravirine, reference compound]; 42.6
Cc1ccc(C(=O)Nc2ccc(S(=O)(=O)O)c3cc(S(=O)(=O)O)cc(S(=O)(=O)O)c23)cc1NC(=O)c1cccc(NC(=O)Nc2cccc(C(=O)Nc3cc(C(=O)Nc4ccc(S(=O)(=O)O)c5cc(S(=O)(=O)O)cc(S(=O)(=O)O)c45)ccc3C)c2)c1 [Suramin, reference compound]; 7.02

The compound CC(C)c1nc(CN(C)C(=O)N[C@H](C(=O)N[C@@H](Cc2ccccc2)C[C@H](O)[C@H](Cc2ccccc2)NC(=O)OCc2cncs2)C(C)C)cs1 [Ritonavir, reference compound] , when measured on VEGFR2 (Homo sapiens, UniProt P35968), yielded remaining activity at 10 µM of 113

The compound Cc1cccc(C)c1OCC(=O)N[C@@H](Cc1ccccc1)[C@@H](O)C[C@H](Cc1ccccc1)NC(=O)[C@H](C(C)C)N1CCCNC1=O [Lopinavir, reference compound] , when measured on VEGFR2 (Homo sapiens, UniProt P35968), yielded remaining activity at 10 µM of 103

###

# targetDesc: UniProt:P35968
# protocol: Kinase activity test (ReactionBiology), % enzyme activity relative to DMSO
# Type: biochemical
# Parameters: purchased ReactionBiology
# conditionInfo: VEGFR2; 10 uM; replicate Data 1
measuredAttribute: % Enzyme Activity (relative to DMSO controls), Data 1 (%)
Numbers only; they are read as %.

Solved entries (count: 4):
CCCCC1C(=O)N(c2ccccc2)N(c2ccccc2)C1=O; 86.33
C[C@H](O)[C@H](O)[C@H]1CNc2nc(N)[nH]c(=O)c2N1; 98.48
CC(C)(Oc1ccc(CCNC(=O)c2ccc(Cl)cc2)cc1)C(=O)O [Bezafibrate]; 106.16
O=c1[nH]cc(F)c(=O)[nH]1; 109.47

Moving on to the next molecule.
Data point: Cn1c(=O)cc(N2CCC[C@@H](N)C2)n(Cc2ccccc2C#N)c1=O ; % Enzyme Activity (relative to DMSO controls), Data 1 = 106.32

###

# targetDesc: VEGFR2 (Homo sapiens, UniProt P35968)
# protocol: Kinase activity test (ReactionBiology), % enzyme activity relative to DMSO
# Type: biochemical
# Set-up: purchased ReactionBiology
# conditionInfo: VEGFR2; 10 uM; replicate Data 2
measuredAttribute: % Enzyme Activity (relative to DMSO controls), Data 2 (%)
Numbers only; they are read as %.

COc1ccc2c3c1O[C@H]1C[C@@H](O)C=C[C@@]31CCN(C)C2; 90.65
C[C@H](O)[C@H](O)[C@H]1CNc2nc(N)[nH]c(=O)c2N1; 97.79

Moving on to the next compound.
Data point: COc1cccc2c1C(=O)c1c(O)c3c(c(O)c1C2=O)C[C@@](O)(C(=O)CO)C[C@@H]3O[C@H]1C[C@H](N)[C@H](O)[C@H](C)O1 ; % Enzyme Activity (relative to DMSO controls), Data 2 = 100.47

###

# protocol: WST-1 cytotoxicity assay on Jurkat cells (T-cell line)
# Format: cell-based, human
# conditionInfo: human, Jurkat cells (T-cell line), mean of 4 independent measures, read-out: Cytotoxicity, WST-1 Jurkat IC 50 (µM) Mean
measuredAttribute: IC50 at 48 h (µM)
Numbers only; they are read as µM.

CN1CCN(CCCN2c3ccccc3Sc3ccc(Cl)cc32)CC1 [Prochlorperazine, reference compound]; 21.9
Nc1ccc2cc3ccc(N)cc3nc2c1 [Proflavine, reference compound]; 5

Data point: CC/C(=C(/CC)c1ccc(O)cc1)c1ccc(O)cc1 [Diethylstilbestrol, reference compound] ; IC50 at 48 h = 6.7

Data point: CCN(CC)Cc1cc(Nc2ccnc3cc(Cl)ccc23)ccc1O [Amodiaquine, reference compound] ; IC50 at 48 h = 26.2

Data point: Oc1c(Cl)cc(Cl)c(Cl)c1Cc1c(O)c(Cl)cc(Cl)c1Cl [Hexachlorophene, reference compound] ; IC50 at 48 h = 5.88

###

# maps each entry to its remaining activity at 10 µM
# targetDesc: NEK2 (Homo sapiens)
# Construct: purchased ReactionBiology
# protocol: Kinase activity test (ReactionBiology), % enzyme activity relative to DMSO
# Type: biochemical
# conditionInfo: NEK2; 10 uM; replicate Data 2; read-out: % Enzyme Activity (relative to DMSO controls), Data 2
Numbers only; they are read as %.

Solved entries (count: 5):
Cc1cccc(C)c1OCC(=O)N[C@@H](Cc1ccccc1)[C@@H](O)C[C@H](Cc1ccccc1)NC(=O)[C@H](C(C)C)N1CCCNC1=O [Lopinavir, reference compound]; 79.2
CN1CCN(CCCN2c3ccccc3Sc3ccc(Cl)cc32)CC1 [Prochlorperazine, reference compound]; 67.8
CC/C(=C(/CC)c1ccc(O)cc1)c1ccc(O)cc1 [Diethylstilbestrol, reference compound]; 56.7
NC[C@H]1CC[C@H](C(=O)O)CC1; 98.5
N[C@@H](CC(=O)N1CCn2c(nnc2C(F)(F)F)C1)Cc1cc(F)c(F)cc1F; 90.3

The compound NC(=O)c1cccnc1 [Niacinamide, reference compound] , when measured on NEK2 (Homo sapiens), yielded remaining activity at 10 µM of 87.8

The compound N[C@@H](Cc1cc(I)c(Oc2cc(I)c(O)c(I)c2)c(I)c1)C(=O)O [Thyroxine, reference compound] , when measured on NEK2 (Homo sapiens), yielded remaining activity at 10 µM of 49.1

The compound Nc1ccc2cc3ccc(N)cc3nc2c1 [Proflavine, reference compound] , when measured on NEK2 (Homo sapiens), yielded remaining activity at 10 µM of 54.1

###

# targetDesc: NEK2 (Homo sapiens, UniProt P51955)
# Construct: purchased ReactionBiology
# Sequence (P51955 whole entry): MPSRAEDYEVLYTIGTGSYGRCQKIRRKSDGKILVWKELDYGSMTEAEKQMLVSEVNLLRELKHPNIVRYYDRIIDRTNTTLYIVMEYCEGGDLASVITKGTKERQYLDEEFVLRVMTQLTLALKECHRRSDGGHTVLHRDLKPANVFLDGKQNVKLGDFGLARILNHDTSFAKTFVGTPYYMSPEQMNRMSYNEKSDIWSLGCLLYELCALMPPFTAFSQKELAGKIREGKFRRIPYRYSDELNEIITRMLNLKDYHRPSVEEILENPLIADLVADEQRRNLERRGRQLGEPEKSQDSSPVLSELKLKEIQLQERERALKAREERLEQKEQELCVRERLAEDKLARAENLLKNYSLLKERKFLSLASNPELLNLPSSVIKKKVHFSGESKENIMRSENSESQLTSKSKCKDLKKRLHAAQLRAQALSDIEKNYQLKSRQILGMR
# protocol: Kinase activity test (ReactionBiology), % enzyme activity relative to DMSO;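 for remaining activity: FDA-approved drugs chosen by structure-based repositioning, each screened at 10 or 1 µM for kinase activity, expressed as percent of DMSO controls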
# Format: biochemical
# conditionInfo: NEK2; compound 10μM; relative to DMSO controls; read-out: % Enzyme activity at 10μM
measuredAttribute: remaining activity at 10 µM (%)
Numbers only; they are read as %.

Nc1ncnc2c1ncn2[C@@H]1O[C@H](CO)[C@@H](O)[C@H]1O [Adenosine, reference compound]; 59
Nc1ccc2cc3ccc(N)cc3nc2c1 [Proflavine, reference compound]; 51.6
N[C@@H](Cc1cc(I)c(Oc2cc(I)c(O)c(I)c2)c(I)c1)C(=O)O [Thyroxine, reference compound]; 48.1
CC/C(=C(/CC)c1ccc(O)cc1)c1ccc(O)cc1 [Diethylstilbestrol, reference compound]; 50.7

Moving on to the next compound.
The compound CN1CCN(CCCN2c3ccccc3Sc3ccc(Cl)cc32)CC1 [Prochlorperazine, reference compound] , when measured on NEK2 (Homo sapiens, UniProt P51955), yielded remaining activity at 10 µM of 68.7

###

# targetDesc: CK1d (Homo sapiens, UniProt P48730)
# Construct: purchased ReactionBiology
# protocol: Kinase activity test (ReactionBiology), % enzyme activity relative to DMSO
# Format: biochemical
# conditionInfo: CK1d; 1 uM; Average
# maps each entry to its % Enzyme Activity (relative to DMSO controls), Average
Numbers only; they are read as %.

Solved entries (count: 5):
CCC1=C(C)CN(C(=O)NCCc2ccc(S(=O)(=O)NC(=O)N[C@H]3CC[C@H](C)CC3)cc2)C1=O [Glimepiride]; 106.25
Cc1ccc(-c2cc(C(F)(F)F)nn2-c2ccc(S(N)(=O)=O)cc2)cc1 [Celecoxib]; 94.68
COc1ccc2c(c1)c(CC(=O)O)c(C)n2C(=O)c1ccc(Cl)cc1 [Iomethacin]; 102.15
O=C(O)c1cc(-c2ccc(F)cc2F)ccc1O [Diflunisal]; 189.68
C[C@H]1O[C@@H](O[C@H]2[C@@H](O)C[C@H](O[C@H]3[C@@H](O)C[C@H](O[C@H]4CC[C@@]5(C)[C@H](CC[C@@H]6[C@@H]5C[C@@H](O)[C@]5(C)[C@@H](C7=CC(=O)OC7)CC[C@]65O)C4)O[C@@H]3C)O[C@@H]2C)C[C@H](O)[C@@H]1O [Digoxin]; 103.51

Moving on to the next compound.
The compound CCc1nc(N)nc(N)c1-c1ccc(Cl)cc1 [Pyrimethamine] , when measured on CK1d (Homo sapiens, UniProt P48730), yielded % Enzyme Activity (relative to DMSO controls), Average of 93.71
